target-under-test: B-Raf kinase (SEQ. ID NO: 2) (Homo sapiens (Human), UniProt P15056)
Sequence (P15056 416-766): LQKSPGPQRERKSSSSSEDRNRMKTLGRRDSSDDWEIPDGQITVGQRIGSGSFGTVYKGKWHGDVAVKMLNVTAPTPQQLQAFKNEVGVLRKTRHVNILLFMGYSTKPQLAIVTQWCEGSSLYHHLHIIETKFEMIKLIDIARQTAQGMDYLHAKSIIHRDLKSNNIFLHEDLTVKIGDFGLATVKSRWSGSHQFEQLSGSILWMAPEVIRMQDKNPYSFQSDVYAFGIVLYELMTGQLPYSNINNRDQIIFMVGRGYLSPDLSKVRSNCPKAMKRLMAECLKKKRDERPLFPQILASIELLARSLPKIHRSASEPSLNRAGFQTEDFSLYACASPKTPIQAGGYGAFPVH
experiment: Biochemical Assay for B-Raf (1)
setup-conditions: Table J, assay version (1); read-out: BRAF (1) IC50
pIC50: −log10 of the molar value.
Quick reference: pIC50 of the listed items.

Quick one: pIC50 for CC(=O)Nc1cc(-c2ccnc(-c3cc(NC(=O)c4ccnc(C(C)(C)C#N)c4)ccc3C)n2)ccn1 [Example 103] ? ≥ 7.00

Quick one: pIC50 for Cc1ncc(NC(=O)c2ccnc(C(C)(C)C#N)c2)cc1-c1cccc(-c2ccnc(NC(=O)C3CC3)c2)n1 [Example 172] ? ≥ 7.00

Quick one: pIC50 for CNC(=O)c1cc(-c2cc(-c3cc(NC(=O)c4ccnc(C5(C#N)CC5)c4)ccc3C)ccn2)ccn1 [Example 265] ? ≥ 7.00

Quick one: pIC50 for CNC(=O)c1cc(-c2cncc(-c3cc(NC(=O)c4ccnc(C(F)(F)F)c4)ccc3C)n2)ccn1 [Example 47] ? ≥ 7.00
